This section lists pIC50 readings for GBA3 (Homo sapiens).
# log scale: pIC50 equals minus log10 of the concentration in mol/L

| Compound | Value observed |
| --- | --- |
| CN1/C(=C/C=C/C=C/C2=[N+](CCCCCC(=O)NCc3cn(CCCCCCCCN4[C@@H]5[C@H](CO)C[C@H](O)[C@@H](O)[C@@H]54)nn3)c3ccccc3C2(C)C)C(C)(C)c2ccccc21 (stereo partly shown) | 6.59 |
| CN1/C(=C/C=C/C=C/C2=[N+](CCCCCC(=O)NCc3cn(CCCCCCCCN4[C@@H]5[C@H](CO)[C@@H](O)[C@H](O)[C@@H](O)[C@@H]54)nn3)c3ccccc3C2(C)C)C(C)(C)c2ccccc21 (stereo partly shown) | 7.51 |

Shifting focus to the compound that follows.
Q: Please report the measured pIC50 for CN1/C(=C/C=C/C=C/C2=[N+](CCCCCC(=O)NCc3cn(CCCCCCCCN4[C@@H]5[C@H](CO)C[C@H](O)C[C@@H]54)nn3)c3ccccc3C2(C)C)C(C)(C)c2ccccc21 (stereo partly shown) tested on GBA3 (Homo sapiens).
Sequence (Q9H227 whole entry): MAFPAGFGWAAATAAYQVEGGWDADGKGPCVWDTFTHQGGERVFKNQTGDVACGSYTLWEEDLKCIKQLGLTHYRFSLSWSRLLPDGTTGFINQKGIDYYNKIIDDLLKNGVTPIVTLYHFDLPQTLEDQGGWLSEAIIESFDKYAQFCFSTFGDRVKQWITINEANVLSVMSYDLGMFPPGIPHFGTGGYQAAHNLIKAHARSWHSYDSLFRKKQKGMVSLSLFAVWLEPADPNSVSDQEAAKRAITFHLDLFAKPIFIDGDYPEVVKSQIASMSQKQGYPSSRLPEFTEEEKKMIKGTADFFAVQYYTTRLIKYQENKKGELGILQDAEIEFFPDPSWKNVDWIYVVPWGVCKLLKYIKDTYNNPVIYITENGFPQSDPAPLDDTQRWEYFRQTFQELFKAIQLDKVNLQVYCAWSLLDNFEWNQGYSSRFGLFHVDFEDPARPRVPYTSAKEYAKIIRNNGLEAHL
A: 5.91

----------
Form field: IC50 (one value per entry).
Molecular target: GBA2 (Homo sapiens)
Sequence (Q9HCG7 1-927): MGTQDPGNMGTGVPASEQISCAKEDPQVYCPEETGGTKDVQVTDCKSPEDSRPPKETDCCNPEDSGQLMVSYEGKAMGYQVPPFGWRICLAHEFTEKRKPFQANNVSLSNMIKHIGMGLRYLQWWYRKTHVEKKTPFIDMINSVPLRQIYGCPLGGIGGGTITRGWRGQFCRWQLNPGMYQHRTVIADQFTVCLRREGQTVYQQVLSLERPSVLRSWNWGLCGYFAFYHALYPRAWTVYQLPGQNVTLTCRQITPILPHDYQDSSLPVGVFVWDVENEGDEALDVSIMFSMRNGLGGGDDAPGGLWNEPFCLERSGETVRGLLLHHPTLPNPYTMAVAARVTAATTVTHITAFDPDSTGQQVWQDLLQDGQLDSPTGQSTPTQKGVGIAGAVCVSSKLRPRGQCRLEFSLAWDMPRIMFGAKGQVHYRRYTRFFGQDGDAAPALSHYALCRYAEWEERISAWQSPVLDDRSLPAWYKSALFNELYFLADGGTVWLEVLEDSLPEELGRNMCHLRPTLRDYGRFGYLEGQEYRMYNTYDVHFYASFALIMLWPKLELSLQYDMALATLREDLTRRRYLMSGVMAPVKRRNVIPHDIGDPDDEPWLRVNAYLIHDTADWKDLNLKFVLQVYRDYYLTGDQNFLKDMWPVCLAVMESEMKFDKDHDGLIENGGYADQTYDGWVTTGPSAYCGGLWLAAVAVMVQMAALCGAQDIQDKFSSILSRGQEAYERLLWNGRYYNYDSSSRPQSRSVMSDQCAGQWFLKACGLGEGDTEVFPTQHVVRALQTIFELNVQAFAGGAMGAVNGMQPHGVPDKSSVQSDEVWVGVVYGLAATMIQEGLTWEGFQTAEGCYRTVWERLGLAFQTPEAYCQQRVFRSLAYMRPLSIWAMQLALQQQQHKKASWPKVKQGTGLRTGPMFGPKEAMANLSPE

Examples with answers:
| Compound | IC50 |
| --- | --- |
| CN1/C(=C/C=C/C=C/C2=[N+](CCCCCC(=O)NCc3cn(CCCCCCCCN4[C@@H]5[C@H](CO)C[C@H](O)[C@@H](O)[C@@H]54)nn3)c3ccccc3C2(C)C)C(C)(C)c2ccccc21 (stereo partly shown) | 240 nM |
| CN1/C(=C/C=C/C=C/C2=[N+](CCCCCC(=O)NCc3cn(C[C@@H]4[C@@H](O)[C@H](O)[C@@H](O)[C@@H]5O[C@H]45)nn3)c3ccccc3C2(C)C)C(C)(C)c2ccccc21 | > 15000 nM |
| CN1/C(=C/C=C/C=C/C2=[N+](CCCCCC(=O)NCc3cn(CCCCCCCCN4[C@@H]5[C@H](CO)C[C@H](O)C[C@@H]54)nn3)c3ccccc3C2(C)C)C(C)(C)c2ccccc21 (stereo partly shown) | 230 nM |

Shifting focus to the compound that follows.
Q: Please report the measured IC50 for CN1/C(=C/C=C/C=C/C2=[N+](CCCCCC(=O)NCc3cn(CCCCCCCCN4[C@@H]5[C@H](CO)[C@@H](O)[C@H](O)[C@@H](O)[C@@H]54)nn3)c3ccccc3C2(C)C)C(C)(C)c2ccccc21 (stereo partly shown) tested on GBA2 (Homo sapiens).
A: 145 nM

----------
target: recombinant human GBA1 (rhGBA1) (Homo sapiens, UniProt P04062, R534H); assay: fluorogenic substrate assay (4-MU-β-D-Glu hydrolysis), rhGBA1
Sequence (P04062 40-536 R534H): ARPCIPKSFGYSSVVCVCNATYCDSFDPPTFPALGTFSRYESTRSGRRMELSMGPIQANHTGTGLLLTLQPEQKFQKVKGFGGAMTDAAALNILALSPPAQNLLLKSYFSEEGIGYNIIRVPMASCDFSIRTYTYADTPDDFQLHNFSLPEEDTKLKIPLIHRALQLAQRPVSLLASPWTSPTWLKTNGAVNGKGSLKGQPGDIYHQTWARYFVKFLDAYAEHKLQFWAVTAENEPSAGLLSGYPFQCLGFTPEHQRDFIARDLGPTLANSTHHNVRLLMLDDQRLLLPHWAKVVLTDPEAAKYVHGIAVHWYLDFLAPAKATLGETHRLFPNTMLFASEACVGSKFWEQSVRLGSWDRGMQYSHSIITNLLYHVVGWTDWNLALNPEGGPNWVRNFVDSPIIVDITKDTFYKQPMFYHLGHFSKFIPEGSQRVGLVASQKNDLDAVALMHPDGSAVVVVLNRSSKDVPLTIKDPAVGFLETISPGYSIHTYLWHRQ
Readout kind: IC50 (nM)
Respond with the bare value in nM.

| Compound | System | IC50 / nM |
| --- | --- | --- |
| CN1/C(=C/C=C/C=C/C2=[N+](CCCCCC(=O)NCc3cn(C[C@@H]4[C@@H](O)[C@H](O)[C@@H](O)[C@@H]5O[C@H]45)nn3)c3ccccc3C2(C)C)C(C)(C)c2ccccc21 | recombinant human GBA1 (rhGBA1) (Homo sapiens, UniProt P04062, R534H) | 42 |
| CN1/C(=C/C=C/C=C/C2=[N+](CCCCCC(=O)NCc3cn(CCCCCCCCN4[C@@H]5[C@H](CO)C[C@H](O)C[C@@H]54)nn3)c3ccccc3C2(C)C)C(C)(C)c2ccccc21 (stereo partly shown) | recombinant human GBA1 (rhGBA1) (Homo sapiens, UniProt P04062, R534H) | 32000 |
| CN1/C(=C/C=C/C=C/C2=[N+](CCCCCC(=O)NCc3cn(CCCCCCCCN4[C@@H]5[C@H](CO)[C@@H](O)[C@H](O)[C@@H](O)[C@@H]54)nn3)c3ccccc3C2(C)C)C(C)(C)c2ccccc21 (stereo partly shown) | recombinant human GBA1 (rhGBA1) (Homo sapiens, UniProt P04062, R534H) | 0.54 |

Q: Please report the measured IC50 for CN1/C(=C/C=C/C=C/C2=[N+](CCCCCC(=O)NCc3cn(CCCCCCCCN4[C@@H]5[C@H](CO)C[C@H](O)[C@@H](O)[C@@H]54)nn3)c3ccccc3C2(C)C)C(C)(C)c2ccccc21 (stereo partly shown) tested on recombinant human GBA1 (rhGBA1) (Homo sapiens, UniProt P04062, R534H).
A: 260
